- System: MEK4
- Construct: gene MAP2K4
- applied conditions: concentration: 1 μM, replicates: in singlicate; n = 1;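 further: KINOMEscan kinase panel screen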
Record T whenever %Inh is at 10% or higher; record F when lower.

Below are worked cases with known answers.
N#Cc1ccc(Oc2ccc(Nc3ncnc4cc[nH]c34)cc2Cl)cc1 : F
Cl.Cl.c1ccc(-c2cc3ccncc3cc2OC2CCNCC2)cc1 : T
FC(F)(F)c1cc(Nc2nccc(-c3c(-c4ccc(Cl)cc4)nn4ncccc34)n2)ccc1Cl : F
O=C(Nc1ccccc1F)NC1CCN(c2ccnc(Nc3ccc(F)cc3)n2)C1 (centres unmarked) : T
CNc1nccc(-c2c(-c3ccc(F)cc3)ncn2CCCN2CCOCC2)n1 : T

**Query** In plain terms: is recorded %Inh at least 10% for `COc1cc2c(Nc3cccc(NC(=O)c4ccccc4)c3)ncnc2cc1OCCCN1CCOCC1` ?
**Result** F

**Query** Another compound to check: `COc1cc2ncnc(Nc3ccc(OCc4ccccc4Br)c(Cl)c3)c2cc1OC.Cl`
**Result** F

**Query** Another compound to check: `Nc1nc(-c2ccccn2)c(-c2ccnc3ccccc23)s1`
**Result** T

**Query** Another compound to check: `O=C(Nc1ccccc1)Nc1ccc(Oc2ccc3nccn3n2)cc1`
**Result** F

**Query** Another compound to check: `Cc1cc(N2CCC(NS(=O)(=O)c3ccc(F)cc3)CC2)nc(Nc2cccc(C#N)c2)n1.O=C(O)C(F)(F)F`
**Result** T

**Query** Another compound to check: COc1ccc(Nc2nccc(N3CCC(NC(=O)Nc4ccc5c(c4)OCO5)C3)n2)cc1 (centres unmarked)
**Result** T

**Query** Another compound to check: `CC(=O)Nc1n[nH]c2ncc(-c3ccccc3)cc12`
**Result** T

**Query** Another compound to check: `Fc1cccc(COc2ccc(Nc3ncnc4cc[nH]c34)cc2Cl)c1`
**Result** T

----------
%Inh values, listed per item
- Tested on: IKK-beta
- Construct: gene IKBKB
- applied conditions: concentration: 1 μM, replicates: in singlicate; n = 1
The reply should be a number in %, with the unit left off.

COc1ccc(NC(=O)Nc2ccc(C)c(-c3ccc(C(=O)Nc4ccncc4)cc3)c2)cc1 : 0
FC(F)(F)c1ccc(-c2cc(-c3c[nH]nc3-c3ccccn3)ccn2)cc1 : 0
Fc1cccc(COc2ccc(Nc3ncnc4cc[nH]c34)cc2Cl)c1 : 23
CCc1nc(-c2cccc(N(C)S(=O)(=O)c3ccccc3)c2)c(-c2ccnc(Nc3ccc(N4CCN(C(C)=O)CC4)nc3)n2)s1 : 1
FC(F)(F)c1cc(Nc2nccc(-c3c(-c4ccc(Cl)cc4)nn4ncccc34)n2)ccc1Cl : 0

**Query** I have this molecule here, `Fc1cccc(COc2ccc(Nc3ncnc4sc(-c5ccc[nH]5)cc34)cc2Cl)c1` , and I need its recorded %Inh.
**Result** 0

**Query** Another molecule to check: `Cl.Cn1ccc(-c2cccc(Nc3ccnc4cc(-c5nccs5)ccc34)c2)n1`
**Result** 11

**Query** Another molecule to check: `NC(=O)c1sc(-n2cnc3ccccc32)cc1OCc1ccccc1F`
**Result** 2

**Query** Another molecule to check: `CNc1nccc(-c2c(-c3ccc(F)cc3)ncn2CCCN2CCOCC2)n1`
**Result** 0

**Query** Another molecule to check: `Cn1ccc2ncnc(Oc3ccc(NC(=O)Nc4cccnc4)c(Cl)c3)c21`
**Result** 10

**Query** Another molecule to check: `Cl.O=S(=O)(c1cccc(F)c1)c1ccc(Nc2ncnc3cc(Br)sc23)cc1Cl`
**Result** 41

**Query** Another molecule to check: `CS(=O)(=O)CCNCc1ccc(-c2ccc3ncnc(Nc4ccc(OCc5ccccc5)c(Cl)c4)c3c2)o1.Cl`
**Result** 0

**Query** Another molecule to check: `Cc1ccc(C)c(NC(=O)NCCNc2ccnc(Nc3ccc(F)cc3)n2)c1`
**Result** 0

Where do the numbers come from? From paper PMC5540273.
